All figures here come from patent US20080200405A1.

Where a name gives a salt, the structure may show the parent alone.
quantity.name: melting point

Request the reported melting point associated with CC1C(O)C(C)C(C)(C)N(O)C1(C)C.Cl (stereo not drawn)
191.5 °C (dec.)

Lookup CC1(C)C=C(COc2ccccc2N2CCOCC2)C(C)(C)N1O.Cl
155.7 °C (dec.)

Lookup CC1(C)CC(Oc2nsnc2N2CCSCC2)CC(C)(C)N1O.Cl
218 °C (dec.)

Lookup CC1(C)CC(O)(c2ccccc2)CC(C)(C)N1O.Cl
201.7 °C (dec.)

Lookup CC1(C)CC(Oc2nsnc2C#N)CC(C)(C)N1O (as salt: hydrochloride)
179.2 °C (dec.)

Lookup CC1(C)CC(NS(C)(=O)=O)CC(C)(C)N1O (as salt: salt)
178.3 °C (dec.)

Lookup COc1cc2c(cc1OC)CN(c1nsnc1OC1CC(C)(C)N(O)C(C)(C)C1)CC2.Cl
166.9 °C (dec.)

Lookup CC1(C)c2ccc(C(=O)O)cc2C(C)(C)N1O.Cl
225.5 °C (dec.)

Lookup CC1(C)CC(OCc2ccccc2)CC(C)(C)N1O.Cl
181.5 °C (dec.)

Lookup CC1(C)CC(Oc2nsnc2OC2CC(C)(C)N(O)C(C)(C)C2)CC(C)(C)N1O (as salt: chloride)
216.2 °C (dec.)

Lookup COc1ccc2nc(NC3CC(C)(C)N(O)C(C)(C)C3)sc2c1.Cl
220 °C (dec.)

Lookup CC1(C)CC(O)(c2ccc(F)cc2)CC(C)(C)N1O.Cl
220 °C (dec.)

Lookup CC1(C)COCC(C)(C)N1O.Cl
184.6 °C (dec.)

Lookup CC(C)c1nsnc1OCC1=CC(C)(C)N(O)C1(C)C.Cl
155.7 °C

Lookup CC1(C)CC(C#N)CC(C)(C)N1O.Cl
186 °C (dec.)

Lookup CC(C)(C)OC(=O)c1nsnc1OC1CC(C)(C)N(O)C(C)(C)C1.Cl
197 °C (dec.)

Lookup CC1(C)CC(O)C(C)(C)N1O (stereo not drawn) (as salt: salt)
155.5 °C (dec.)

Lookup CC1(C)CC(Oc2nsnc2-c2ccccc2)CC(C)(C)N1O.Cl
220.8 °C (dec.)

Lookup Cc1c(C)c2c(c(C)c1O)CCC(C)(C(=O)NC1CC(C)(C)N(O)C(C)(C)C1)O2.Cl (stereo not drawn)
174.9 °C (dec.)

Lookup CC1(C)CC(Oc2nc3ccccc3s2)CC(C)(C)N1O.Cl
160 °C (dec.)

Lookup COc1cc(CNC2CC(C)(C)N(O)C(C)(C)C2)cc(OC)c1OC.Cl.Cl
181 °C

Lookup CC(=O)NC1CC(C)(C)N(O)C(C)(C)C1.Cl
180.5 °C (dec.)

Lookup CC1(C)COC(=O)C(C)(C)N1O.Cl
145 °C (dec.)

Lookup CC1(C)c2ccc(Br)cc2C(C)(C)N1O.Cl
214.1 °C

Lookup CC1(C)C=C(CO)C(C)(C)N1O (as salt: chloride)
141.9 °C (dec.)

Lookup CC1(C)CC(NC(=O)CCCCC2CCSS2)CC(C)(C)N1O.Cl (stereo not drawn)
164.7 °C (dec.)

Lookup CC1(C)CC(Oc2nsnc2N2CCN(C(=O)c3ccco3)CC2)CC(C)(C)N1O.Cl
198.1 °C (dec.)

Lookup CC1(C)CC(Nc2nc3ccccc3s2)CC(C)(C)N1O.Cl
183 °C (dec.)

Lookup CC1(C)CC(O)C(Br)C(C)(C)N1O (stereo not drawn)
138.5 °C (dec.)

Lookup CC1(C)CC(Cl)CC(C)(C)N1O.Cl
201.8 °C (dec.)

Lookup CC1(C)CC(NC(=O)N2CCOCC2)CC(C)(C)N1O.Cl
158.1 °C (dec.)

Lookup CC1(C)CC(Oc2nsnc2C(=O)O)CC(C)(C)N1O.Cl
209.1 °C (dec.)

Lookup CCCCC1(O)CC(C)(C)N(O)C(C)(C)C1.Cl
187 °C (dec.)
